biological target: T1, cynomolgus CD47, on CHOK1-cCD47 stable cell line (cynomolgus); experiment: FACS CHOK1-cCD47; Ab 0.32 nM
T1 construct: whole, on cells; check before use; also called CHOK1/cynoCD47; monkey-derived CD47
Please note: mean fluorescence intensity exactly at 3000 is F. Only values below 3000 get T.

54G8G6 (antibody, V domains shown, Murine hybridoma antibody purified on protein G) VH: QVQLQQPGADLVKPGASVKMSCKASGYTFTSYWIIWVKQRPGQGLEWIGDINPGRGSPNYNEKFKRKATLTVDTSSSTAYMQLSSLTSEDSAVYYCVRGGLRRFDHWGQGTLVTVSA VL: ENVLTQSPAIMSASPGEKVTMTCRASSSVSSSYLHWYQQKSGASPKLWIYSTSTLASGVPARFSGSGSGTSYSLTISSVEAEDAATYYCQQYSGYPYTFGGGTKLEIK; F
20H4G5 (antibody, V domains shown, Murine hybridoma antibody purified on protein G) VH: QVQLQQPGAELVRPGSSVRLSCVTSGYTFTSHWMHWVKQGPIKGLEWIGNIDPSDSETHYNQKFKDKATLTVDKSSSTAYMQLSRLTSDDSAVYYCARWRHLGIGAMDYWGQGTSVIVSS VL: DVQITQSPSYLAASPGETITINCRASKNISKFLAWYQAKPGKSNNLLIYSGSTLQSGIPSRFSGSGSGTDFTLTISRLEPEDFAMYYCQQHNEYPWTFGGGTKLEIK; F
132D1E5 (antibody, V domains shown, Murine hybridoma antibody purified on protein G) VH: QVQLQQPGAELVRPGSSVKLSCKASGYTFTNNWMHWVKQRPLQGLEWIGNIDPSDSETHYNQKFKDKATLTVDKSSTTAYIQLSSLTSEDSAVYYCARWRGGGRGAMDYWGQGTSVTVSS VL: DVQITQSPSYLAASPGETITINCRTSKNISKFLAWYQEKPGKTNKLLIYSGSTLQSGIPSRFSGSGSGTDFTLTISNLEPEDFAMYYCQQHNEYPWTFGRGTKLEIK; T
4D10B11 (antibody, V domains shown, Murine hybridoma antibody purified on protein G) VH: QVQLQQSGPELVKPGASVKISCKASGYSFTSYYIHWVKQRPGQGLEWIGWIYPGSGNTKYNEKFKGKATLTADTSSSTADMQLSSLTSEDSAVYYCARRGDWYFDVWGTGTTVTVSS VL: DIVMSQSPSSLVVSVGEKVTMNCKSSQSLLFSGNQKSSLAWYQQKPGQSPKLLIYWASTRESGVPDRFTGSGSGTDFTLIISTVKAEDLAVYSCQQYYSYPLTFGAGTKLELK; T
25E3B5 (antibody, V domains shown, Murine hybridoma antibody purified on protein G) VH: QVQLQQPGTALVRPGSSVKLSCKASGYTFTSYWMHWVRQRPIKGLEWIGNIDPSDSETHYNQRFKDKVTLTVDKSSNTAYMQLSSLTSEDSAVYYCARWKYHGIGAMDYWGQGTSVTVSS VL: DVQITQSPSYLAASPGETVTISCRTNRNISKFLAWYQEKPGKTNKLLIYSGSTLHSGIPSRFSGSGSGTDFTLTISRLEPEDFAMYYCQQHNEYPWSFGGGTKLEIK; F

Would you kindly look at the next entry?
-- ask Field: below-cutoff. Rule: recorded mean fluorescence intensity strictly less than 3000. Subject: 51E2F11 (antibody, V domains shown, Murine hybridoma antibody purified on protein G) VH: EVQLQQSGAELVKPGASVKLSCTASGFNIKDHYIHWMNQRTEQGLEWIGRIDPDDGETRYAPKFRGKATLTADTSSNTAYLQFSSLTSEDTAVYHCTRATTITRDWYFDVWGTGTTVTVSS VL: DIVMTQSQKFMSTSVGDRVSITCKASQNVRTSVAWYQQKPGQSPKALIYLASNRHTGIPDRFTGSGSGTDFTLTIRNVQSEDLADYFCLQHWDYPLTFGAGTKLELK
-- reply T
